Give measured IC50 for each item. Keep answers brief.
systemTested: DiHydroFolate Reductase (DHFR) (Rattus norvegicus, UniProt Q920D2)
Sequence (Q920D2 1-187): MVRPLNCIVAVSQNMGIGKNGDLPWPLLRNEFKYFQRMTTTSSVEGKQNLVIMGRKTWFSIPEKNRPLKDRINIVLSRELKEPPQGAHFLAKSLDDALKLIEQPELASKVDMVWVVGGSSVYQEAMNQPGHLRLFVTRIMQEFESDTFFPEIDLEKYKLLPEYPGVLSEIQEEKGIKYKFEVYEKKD
Answers are plain numbers, in µM.

| compound | systemTested | IC50 (µM) |
| --- | --- | --- |
| Nc1nnc(-c2cccc(F)c2Cl)c(N)n1 [Example 40] | DiHydroFolate Reductase (DHFR) (Rattus norvegicus, UniProt Q920D2) | 589 |

// next item, IC50 requested
Sure, the documented IC50 for Nc1nnc(-c2cccc(F)c2F)c(N)n1 [Example 33] is 442

====

systemTested: DiHydroFolate Reductase (DHFR) (Rattus norvegicus)
Construct: from tissue; host or cells: rat liver homogenate supernatant (47,500 x g)
protocol: inhibition of binding of [3H]methotrexate to rat liver homogenate supernatant
conditionContext: read-out: [3H]methotrexate binding Inhibition (% @ assay conc'n); assay concentration 99 μM
For each record, write down the corresponding inhibition at 99 µM.
Answers are plain numbers, in %.

| molecule | systemTested | measurementUnits | inhibition at 99 µM |
| --- | --- | --- | --- |
| CCCCn1nc(-c2cccc(Cl)c2Cl)c(N)nc1=N [Example 8] | DiHydroFolate Reductase (DHFR) (Rattus norvegicus) | % | -2 |

List the reported inhibition at 99 µM of each molecule below.
1. N=c1nc(N)c(-c2cccc(Cl)c2Cl)nn1Cc1ccccc1F [Example 14]
2. Cc1ccc(Cn2nc(-c3cccc(Cl)c3Cl)c(N)nc2=N)cc1 [Example 12]

-4
-3

Answer for every listed entry: what is its inhibition at 99 µM? The entries follow.
1. C=CCn1nc(-c2cccc(Cl)c2Cl)c(N)nc1=N [Example 10]
2. CC(C)Cn1nc(-c2cccc(Cl)c2Cl)c(N)nc1=N [Example 7]

1: -1; 2: -2

====

systemTested: UniProt:Q12809
protocol: in vitro
conditionContext: hERG / [14C]guanidine flux selectivity, ratio of extrapolated hERG IC50 to [14C]guanidine flux IC50
Would you mind telling me the reported selectivity ratio of each entry?
One number for each entry.

Examples with their reported selectivity ratio follow.
| structure | selectivity ratio |
| --- | --- |
| Cn1nc(-c2cc(Cl)cc(Cl)c2Cl)c(N)nc1=N | 3.2 |
| CCCn1nc(-c2cccc(Cl)c2Cl)c(N)nc1=N | 0.6 |
| Nc1nnc(-c2cc(Cl)cc(Cl)c2Cl)c(N)n1 | 4.1 |
| CCCn1nc(-c2cc(Cl)cc(Cl)c2Cl)c(N)nc1=N | 4.7 |

Continue with the compound presented below.
// selectivity ratio value for Cn1nc(-c2cccc(Cl)c2Cl)c(N)nc1=N : 2

====

System: 0.4 mm slices of rat hippocampus
protocol: hippocampal slice assay: ATP after iodoacetate metabolic insult
conditionContext: read-out: hippocampal slice EC50; protection of ATP after iodoacetate
property: EC50 (µM)
One number for each entry, in µM.

// sample CCn1nc(-c2cccc(Cl)c2Cl)c(N)nc1=N , its EC50 was 16

====

systemTested: hERG potassium channel (Homo sapiens, UniProt Q12809)
Sequence (Q12809 whole entry): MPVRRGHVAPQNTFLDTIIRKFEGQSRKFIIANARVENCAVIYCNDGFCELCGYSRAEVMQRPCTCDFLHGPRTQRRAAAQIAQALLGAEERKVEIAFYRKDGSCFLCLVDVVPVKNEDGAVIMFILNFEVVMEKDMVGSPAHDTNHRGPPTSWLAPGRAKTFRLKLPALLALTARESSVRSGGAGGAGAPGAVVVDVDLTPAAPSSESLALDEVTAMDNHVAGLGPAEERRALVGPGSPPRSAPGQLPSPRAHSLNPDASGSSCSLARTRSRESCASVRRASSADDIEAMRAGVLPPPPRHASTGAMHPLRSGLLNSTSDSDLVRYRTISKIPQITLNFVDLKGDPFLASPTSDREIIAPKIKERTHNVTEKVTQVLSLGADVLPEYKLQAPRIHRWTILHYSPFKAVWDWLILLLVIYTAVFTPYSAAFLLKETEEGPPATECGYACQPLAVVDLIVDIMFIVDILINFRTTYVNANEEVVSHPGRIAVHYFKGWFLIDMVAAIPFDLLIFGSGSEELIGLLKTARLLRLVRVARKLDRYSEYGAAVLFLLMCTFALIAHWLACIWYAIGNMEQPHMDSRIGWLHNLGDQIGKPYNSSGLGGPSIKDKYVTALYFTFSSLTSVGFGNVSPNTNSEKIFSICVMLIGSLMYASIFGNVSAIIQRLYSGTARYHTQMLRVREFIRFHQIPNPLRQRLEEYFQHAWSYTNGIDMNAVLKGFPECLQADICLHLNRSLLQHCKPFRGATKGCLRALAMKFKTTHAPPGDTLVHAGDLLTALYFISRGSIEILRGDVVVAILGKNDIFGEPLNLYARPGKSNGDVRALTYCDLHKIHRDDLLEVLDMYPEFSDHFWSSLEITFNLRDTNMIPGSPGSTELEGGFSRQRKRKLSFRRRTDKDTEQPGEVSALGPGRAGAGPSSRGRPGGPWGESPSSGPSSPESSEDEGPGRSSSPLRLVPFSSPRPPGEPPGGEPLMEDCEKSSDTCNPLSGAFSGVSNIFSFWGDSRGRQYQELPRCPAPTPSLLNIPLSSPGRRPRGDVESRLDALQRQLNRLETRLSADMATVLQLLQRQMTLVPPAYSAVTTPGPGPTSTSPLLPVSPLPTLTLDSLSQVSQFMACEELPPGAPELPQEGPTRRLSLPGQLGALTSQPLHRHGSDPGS
protocol: in vitro
conditionContext: hERG % inhibition @ 10 μM
property: inhibition at 10 µM (%)
Give bare numbers, in %.

| molecule | measurementUnits | obsValue |
| --- | --- | --- |
| CN1CCN(c2ncc(-c3cc(Cl)cc(Cl)c3Cl)c(N)n2)CC1 [Sipatrigine, reference compound] | % | 87 |

Entry CC(C)n1nc(-c2cccc(Cl)c2Cl)c(N)nc1=N [Example 4] , inhibition at 10 µM reported as 35

====

Test system: sodium channel
Assay type: binding, rat
conditionContext: Table 4; tissue prep'n Synaptosomes; read-out: [3H]BTX-B binding Mean (IC50: μM)
For each entry below, report its IC50 value.
Give bare numbers, in µM.

| compound | obsValue |
| --- | --- |
| CCCCn1nc(-c2cccc(Cl)c2Cl)c(N)nc1=N [Example 8] | 1.7 |
| CCn1nc(-c2cccc(Cl)c2Cl)c(N)nc1=N [Example 3] | 3.7 |
| CCCn1nc(-c2cc(Cl)cc(Cl)c2Cl)c(N)nc1=N [Example 34] | 0.5 |
| CC(C)Cn1nc(-c2cccc(Cl)c2Cl)c(N)nc1=N [Example 7] | 1 |
| Nc1nnc(-c2cc(Cl)cc(Cl)c2Cl)c(N)n1 [Example 31] | 21.9 |

Please look at the items below and tell me IC50 for each one, in order.
1. Nc1nnc(-c2cccc(Cl)c2Cl)c(N)n1 [Example 1, reference compound]
2. CC(C)n1nc(-c2cccc(Cl)c2Cl)c(N)nc1=N [Example 4]
3. N=c1nc(N)c(-c2cccc(Cl)c2Cl)nn1Cc1ccsc1 [Example 29]

1. 76.6
2. 1.5
3. 2.2

Could I get IC50 for every one of these entries?
1. Cn1nc(-c2cc(Cl)cc(Cl)c2Cl)c(N)nc1=N [Example 32]
2. Nc1nnc(-c2cccc(F)c2Cl)c(N)n1 [Example 40]

1. 1.9
2. 283

====

Please respond with reported selectivity ratio for every item in the list.
systemTested: hERG potassium channel (Homo sapiens, UniProt Q12809)
protocol: inhibition of binding of [3H]astemizole to cell membranes expressing hERG
conditionContext: human, cell membranes expressing hERG, probe [3H]astemizole
Give bare numbers.

Examples with answers:
| structure | selectivity ratio |
| --- | --- |
| N=c1nc(N)c(-c2cccc(Cl)c2Cl)nn1Cc1ccccc1F | 0.9 |
| N=c1nc(N)c(-c2cccc(Cl)c2Cl)nn1Cc1cccc(F)c1F | 0.7 |
| N=c1nc(N)c(-c2cccc(Cl)c2Cl)nn1Cc1cccc(F)c1 | 0.5 |
| COc1cccc(Cn2nc(-c3cccc(Cl)c3Cl)c(N)nc2=N)c1 | 0.5 |

// next entry
Here N=c1nc(N)c(-c2cccc(Cl)c2Cl)nn1CC1CCNCC1 was tested on hERG potassium channel (Homo sapiens, UniProt Q12809), and its selectivity ratio came to 0.1

====

Tested on: sodium channel
Type: binding, rat
conditionContext: Table 1; synaptosomes; mean ± sem (n); read-out: [3H]BTX-B binding (synaptosomes), mean IC50
property: pIC50
Numbers only, as −log10 of the molar value.

In the examples that follow, each entry is paired with its recorded pIC50.
| compound | pIC50 |
| --- | --- |
| Nc1nc(N)c(-c2cc(Cl)cc(Cl)c2Cl)c(CF)n1 [BW202W92, reference compound] | 5.35 |
| Cn1nc(-c2cccc(Cl)c2Cl)c(N)nc1=N | 5.13 |

Could you now consider this next compound?
The observed pIC50 for Nc1nnc(-c2cccc(Cl)c2Cl)c(N)n1 [Example 1, reference compound] when tested with sodium channel stands at 4.08

====

Assignment: determine reported IC50 for the given compounds.
Tested on: sodium channel
Type: binding, rat
conditionContext: Table 4; tissue prep'n Synaptosomes; read-out: [3H]BTX-B binding Mean (IC50: μM)
One number for each entry, in µM.

Consider the following items and state reported IC50 for each.
1. CCCn1nc(-c2cccc(Cl)c2Cl)c(N)nc1=N
2. N=c1nc(N)c(-c2cccc(Cl)c2Cl)nn1Cc1ccoc1
3. N=c1nc(N)c(-c2cccc(Cl)c2Cl)nn1CCC(F)(F)F
4. Cn1nc(-c2cccc(Cl)c2Cl)c(N)nc1=N
5. N=c1nc(N)c(-c2cccc(Cl)c2Cl)nn1CCO
6. N=c1nc(N)c(-c2cccc(Cl)c2Cl)nn1Cc1ccccc1

3.6
2.6
1.6
7.2
25.7
2.2

IC50 reported for this compound Nc1nc(N)c(-c2cc(Cl)cc(Cl)c2Cl)c(CF)n1 [BW202W92, reference compound] : 4.5

====

Exercise: state measured inhibition at 10 µM for each of the molecules provided.
systemTested: DiHydroFolate Reductase (DHFR) (Rattus norvegicus, UniProt Q920D2)
Construct: from tissue; host or cells: rat liver homogenate supernatant (47,500 x g)
protocol: inhibition of binding of [3H]methotrexate to rat liver homogenate supernatant
conditionContext: read-out: [3H]methotrexate binding Inhibition (% @ assay conc'n); assay concentration 10 μM
Give bare numbers, in %.

Here is how some molecules turned out for inhibition at 10 µM.
| molecule | systemTested | measurementUnits | inhibition at 10 µM |
| --- | --- | --- | --- |
| CN1CCN(c2ncc(-c3cc(Cl)cc(Cl)c3Cl)c(N)n2)CC1 [Sipatrigine, reference compound] | DiHydroFolate Reductase (DHFR) (Rattus norvegicus, UniProt Q920D2) | % | 0 |
| CC(C)n1nc(-c2cccc(Cl)c2Cl)c(N)nc1=N | DiHydroFolate Reductase (DHFR) (Rattus norvegicus, UniProt Q920D2) | % | -1 |
| CCCn1nc(-c2cccc(Cl)c2Cl)c(N)nc1=N | DiHydroFolate Reductase (DHFR) (Rattus norvegicus, UniProt Q920D2) | % | 0 |
| COc1ccccc1Cn1nc(-c2cccc(Cl)c2Cl)c(N)nc1=N | DiHydroFolate Reductase (DHFR) (Rattus norvegicus, UniProt Q920D2) | % | -4 |
| CC(C)Cn1nc(-c2cccc(Cl)c2Cl)c(N)nc1=N | DiHydroFolate Reductase (DHFR) (Rattus norvegicus, UniProt Q920D2) | % | -4 |

Please state, for each entry, its recorded inhibition at 10 µM.
1. COc1ccc(Cn2nc(-c3cccc(Cl)c3Cl)c(N)nc2=N)cc1
2. N=c1nc(N)c(-c2cccc(Cl)c2Cl)nn1Cc1cccc(F)c1
3. N=c1nc(N)c(-c2cccc(Cl)c2Cl)nn1Cc1cccc(F)c1F
4. N=c1nc(N)c(-c2cccc(Cl)c2Cl)nn1Cc1ccccc1
5. COc1cccc(Cn2nc(-c3cccc(Cl)c3Cl)c(N)nc2=N)c1

1: -2; 2: -4; 3: -3; 4: 2; 5: -4

Batch request: inhibition at 10 µM per item, same order as input.
1. C=CCn1nc(-c2cccc(Cl)c2Cl)c(N)nc1=N
2. CCCCn1nc(-c2cccc(Cl)c2Cl)c(N)nc1=N
3. N=c1nc(N)c(-c2cccc(Cl)c2Cl)nn1Cc1ccccc1F
4. N=c1nc(N)c(-c2cccc(Cl)c2Cl)nn1Cc1ccc(F)cc1
5. Cn1nc(-c2cccc(Cl)c2Cl)c(N)nc1=N

1: -2; 2: -4; 3: -1; 4: -3; 5: 0
